Biological target: T1, TNFR1 (Homo sapiens, UniProt P19438)
T1 chain: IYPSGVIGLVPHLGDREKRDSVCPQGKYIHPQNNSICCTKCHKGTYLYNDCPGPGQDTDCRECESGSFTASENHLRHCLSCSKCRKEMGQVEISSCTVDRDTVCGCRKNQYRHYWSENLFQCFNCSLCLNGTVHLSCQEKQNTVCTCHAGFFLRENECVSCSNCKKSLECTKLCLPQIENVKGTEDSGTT
Test: yeast display SC50
endpoint_label: apparent Kd (screen) (nM)

- binder: "V74Q (designed binder) SMEEEVEKAAKEYEKKKKEAIEKHLEKLKAKDKEAAERFLKELEEAAKEYAKDEAKTMSEEEAKRRAKKYKEKQLLSELSEEEQKEIKEAEEKLVRTILKYVEEAAK"
  apparent Kd (screen) / nM: 29.5

[A] L40G (designed binder) SMEEEVEKAAKEYEKKKKEAIEKHLEKLKAKDKEAAERFGKELEEAAKEYAKDEAKTMSEEEAKRRAKKYKEKVLLSELSEEEQKEIKEAEEKLVRTILKYVEEAAK
[B] I21L (designed binder) SMEEEVEKAAKEYEKKKKEALEKHLEKLKAKDKEAAERFLKELEEAAKEYAKDEAKTMSEEEAKRRAKKYKEKVLLSELSEEEQKEIKEAEEKLVRTILKYVEEAAK
[C] Y50G (designed binder) SMEEEVEKAAKEYEKKKKEAIEKHLEKLKAKDKEAAERFLKELEEAAKEGAKDEAKTMSEEEAKRRAKKYKEKVLLSELSEEEQKEIKEAEEKLVRTILKYVEEAAK
[D] E14F (designed binder) SMEEEVEKAAKEYFKKKKEAIEKHLEKLKAKDKEAAERFLKELEEAAKEYAKDEAKTMSEEEAKRRAKKYKEKVLLSELSEEEQKEIKEAEEKLVRTILKYVEEAAK
query: Place the items in sequence of falling apparent Kd (screen). # format: label list in the order the request specifies
result: D, C, B, A

Hello, the source for this data is paper PMC12416549, in case you need it.
